target: tyrosinase (Agaricus bisporus); assay: Tyrosinase inhibitory activity using L-DOPA as substrate; assay type: biochemical, mushroom; settings: compound concentration 64 μM; L-DOPA substrate; read-out: Inhibition Rate at 64 μM (%)
quantity measured: inhibition at 64 µM (%)
# value in %; strip the unit string

| compound | inhibition at 64 µM / % |
| --- | --- |
| C=CCc1ccc(OC(=O)/C=C/c2ccccc2[N+](=O)[O-])c(OC)c1 | 5 |

The compound C=CCc1ccc(OC(=O)/C=C/c2ccc(O)c(OC)c2)c(OC)c1 , when measured on tyrosinase (Agaricus bisporus), yielded inhibition at 64 µM of 47

The compound C=CCc1ccc(OC(=O)C=Cc2ccccc2)c(OC)c1 [c1, 4-allyl-2-methoxyphenyl cinnamate] , when measured on tyrosinase (Agaricus bisporus), yielded inhibition at 64 µM of 12

The compound C=CCc1ccc(OC(=O)/C=C/c2ccc([N+](=O)[O-])cc2)c(OC)c1 , when measured on tyrosinase (Agaricus bisporus), yielded inhibition at 64 µM of 14

The compound C=CCc1ccc(OC(=O)/C=C/c2cccc(Br)c2)c(OC)c1 , when measured on tyrosinase (Agaricus bisporus), yielded inhibition at 64 µM of 3

###

target: tyrosinase (Agaricus bisporus); test: Tyrosinase inhibitory activity using L-DOPA as substrate; type: biochemical, mushroom; conditions: compound concentration 64 μM; L-DOPA substrate; read-out: Inhibition Rate at 64 μM (%)
// reported inhibition at 64 µM per item
# value in %; strip the unit string

Recorded results for 2 compounds are shown here.
| smiles input | unit of measurement | numeric result |
| --- | --- | --- |
| C=CCc1ccc(OC(=O)/C=C/c2cccc(C(F)(F)F)c2)c(OC)c1 | % | 5 |
| C=CCc1ccc(OC(=O)/C=C/c2cccc(C)c2)c(OC)c1 | % | 39 |

Consider the additional compound presented here.
Item: C=CCc1ccc(OC(=O)/C=C/c2cccc(O)c2)c(OC)c1 | inhibition at 64 µM: 67.6

###

biological target: tyrosinase (Agaricus bisporus, UniProt C7FF04); test: Tyrosinase inhibitory activity using L-DOPA as substrate; assay type: biochemical, mushroom; conditions: compound concentration 64 μM; L-DOPA substrate; read-out: Inhibition Rate at 64 μM (%)
Sequence (C7FF04 2-392): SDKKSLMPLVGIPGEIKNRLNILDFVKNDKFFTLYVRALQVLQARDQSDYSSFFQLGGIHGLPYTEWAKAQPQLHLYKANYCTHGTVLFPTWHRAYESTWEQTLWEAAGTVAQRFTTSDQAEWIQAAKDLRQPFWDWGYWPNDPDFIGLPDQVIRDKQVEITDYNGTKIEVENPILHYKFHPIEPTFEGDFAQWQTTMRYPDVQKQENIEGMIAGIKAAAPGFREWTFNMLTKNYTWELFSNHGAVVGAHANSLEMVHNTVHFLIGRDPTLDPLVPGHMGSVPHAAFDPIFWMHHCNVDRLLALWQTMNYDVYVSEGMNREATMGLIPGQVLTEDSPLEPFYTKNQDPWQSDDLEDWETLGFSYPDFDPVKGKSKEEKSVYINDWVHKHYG
// reported inhibition at 64 µM per item
# value in %; strip the unit string

| smiles input | inhibition at 64 µM, % |
| --- | --- |
| C=CCc1ccc(OC(=O)/C=C/c2ccccc2Cl)c(OC)c1 | 29 |
| C=CCc1ccc(OC(=O)/C=C/c2ccc(F)cc2)c(OC)c1 | 17 |
| C=CCc1ccc(OC(=O)/C=C/c2ccc(N(C)C)cc2)c(OC)c1 | 26 |
| C=CCc1ccc(OC(=O)/C=C/c2ccc3c(c2)OCO3)c(OC)c1 | 4 |

Item: C=CCc1ccc(OC(=O)/C=C/c2ccc(Br)cc2)c(OC)c1 | inhibition at 64 µM: 13

Item: C=CCc1ccc(OC(=O)/C=C/c2ccccc2Br)c(OC)c1 | inhibition at 64 µM: 10

Item: C=CCc1ccc(OC(=O)/C=C/c2cccc([N+](=O)[O-])c2)c(OC)c1 | inhibition at 64 µM: 9

Item: C=CCc1ccc(OC(=O)/C=C/c2cccc(Cl)c2)c(OC)c1 | inhibition at 64 µM: 17

Item: C=CCc1ccc(OC(=O)/C=C/c2ccc(OC)cc2)c(OC)c1 | inhibition at 64 µM: 7

Item: C=CCc1ccc(OC(=O)/C=C/c2ccccc2OC)c(OC)c1 | inhibition at 64 µM: 3

###

biological target: tyrosinase (Agaricus bisporus, UniProt C7FF04); assay: Tyrosinase inhibitory activity using L-DOPA as substrate; type: biochemical, mushroom; conditions: compound concentration 64 μM; L-DOPA substrate; read-out: Inhibition Rate at 64 μM (%)
Use t when the recorded inhibition at 64 µM is no lower than 20%; use f when it is lower.

Solved cases below.
| smiles input | subject of test | qualitative label |
| --- | --- | --- |
| C=CCc1ccc(OC(=O)/C=C/c2ccc(C)cc2)c(OC)c1 | tyrosinase (Agaricus bisporus, UniProt C7FF04) | f |
| C=CCc1ccc(OC(=O)/C=C/c2ccccc2F)c(OC)c1 | tyrosinase (Agaricus bisporus, UniProt C7FF04) | f |
| C=CCc1ccc(OC(=O)/C=C/c2ccc(Cl)c(F)c2)c(OC)c1 | tyrosinase (Agaricus bisporus, UniProt C7FF04) | f |
| C=CCc1ccc(OC(=O)/C=C/c2ccccc2C(F)(F)F)c(OC)c1 | tyrosinase (Agaricus bisporus, UniProt C7FF04) | f |
| C=CCc1ccc(OC(=O)/C=C/c2ccccc2C)c(OC)c1 | tyrosinase (Agaricus bisporus, UniProt C7FF04) | f |
| C=CCc1ccc(OC(=O)/C=C/c2ccc(O)c(O)c2)c(OC)c1 | tyrosinase (Agaricus bisporus, UniProt C7FF04) | t |
| C=CCc1ccc(OC(=O)/C=C/c2cccc(F)c2)c(OC)c1 | tyrosinase (Agaricus bisporus, UniProt C7FF04) | f |
| C=CCc1ccc(OC(=O)/C=C/c2ccc(C(F)(F)F)cc2)c(OC)c1 | tyrosinase (Agaricus bisporus, UniProt C7FF04) | f |

In: Check the entry C=CCc1ccc(OC(=O)/C=C/c2ccc(O)cc2)c(OC)c1 : does inhibition at 64 µM equal or exceed 20%?
Out: t

In: Check the entry C=CCc1ccc(OC(=O)/C=C/c2cccc(OC)c2)c(OC)c1 : does inhibition at 64 µM equal or exceed 20%?
Out: f
